Assay: Plasma stability assay
Format: in vitro ADME, mouse
Details: mouse, 10 μM
Numbered stars: 1 amine (or outer) side, 2 acyl side, 3 side chain; on linkers, the order of the positions; unused ones are H or OH. Bridge positions count the residues as written; N and C are the ends. Square brackets hold non-standard residues; d marks the D form. Peptide text beside a SMILES is read from it. * marks the point of attachment. Piperazine(2S-CO,4-Me) = CN1CCN[C@H](C(=O)O)C1; X6 = O=C([C@@H]1CS(=O)(=O)CCN1[*:1])[*:2]; Phe(3-Me) = Cc1cccc(C[C@H](N)C(=O)O)c1; NH(4-Cl-2-F-phenyl) = Fc1cc(Cl)ccc1N*; Pro(4R-Me) = C[C@H]1CN[C@H](C(=O)O)C1; Hyp = O=C(O)[C@@H]1C[C@@H](O)CN1; NH(4-Et-phenyl) = CCc1ccc(N*)cc1; aThr = C[C@H](O)[C@H](N)C(=O)O; Pip = O=C(O)[C@@H]1CCCCN1; CO = O=C([*:1])[*:2]

| molecule | Mouse |
| --- | --- |
| Cc1cccc(C[C@H](NC(=O)Nc2ccc(Cl)cc2F)C(=O)N[C@@H]2C(=O)N3CCC[C@H]3C(=O)N3CCS(=O)(=O)C[C@H]3C(=O)N[C@@H](C)C(=O)N3C[C@H](C)C[C@H]3C(=O)O[C@H]2C)c1 [Compound 40] ({NH(4-Cl-2-F-phenyl)-CO}-[Phe(3-Me)][aThr]P[X6]A[Pro(4R-Me)]; ester 2-C) | >50 h |
| CCc1ccc(NC(=O)N[C@@H](Cc2cccc(C)c2)C(=O)N[C@H]2COC(=O)[C@@H]3C[C@@H](C)CN3C(=O)[C@H](C)NC(=O)[C@@H]3CN(C)CCN3C(=O)[C@@H]3CCCN3C2=O)cc1 [Compound 16] ({NH(4-Et-phenyl)-CO}-[Phe(3-Me)]SP[Piperazine(2S-CO,4-Me)]A[Pro(4R-Me)]; ester 2-C) | 6.86 ± 0.7 h |
| CCc1ccc(NC(=O)N[C@@H](Cc2cccc(C)c2)C(=O)N[C@@H]2C(=O)N3C[C@H](O)C[C@H]3C(=O)N3CCCC[C@H]3C(=O)N[C@@H](C)C(=O)N3C[C@H](C)C[C@H]3C(=O)O[C@H]2C)cc1 [Compound 25] ({NH(4-Et-phenyl)-CO}-[Phe(3-Me)][aThr][Hyp][Pip]A[Pro(4R-Me)]; ester 2-C) | >50 h |
